Taken from ChEMBL document CHEMBL1153546.

Test: Cmax in patient with end-stage renal disease at 200 mg, po administered as two single doses within 2 hrs of after completion of dialysis separated by 1 week washout period
Format: ADME, organism-based
Design: dose 200 mg, route oral
Settings: human, in vivo
endpoint: Cmax

Any idea what its Cmax is? The compound is Cc1cn([C@@H]2C[C@@H](O)[C@H](CO)O2)c(=O)[nH]c1=O 2100 ng/mL

----------
Assay: Cmax in patient with mild renal impairment at 600 mg, po administered as single dose
Type: ADME, organism-based
Parameters: dose 600 mg, route oral
Settings: human, in vivo
endpoint: Cmax (ng/mL)
Give bare numbers, in ng/mL.

Any idea what its Cmax is? The compound is Cc1cn([C@@H]2C[C@@H](O)[C@H](CO)O2)c(=O)[nH]c1=O [TELBIVUDINE] 3200
